Would you kindly list normalized growth for each of these compounds?
Assay: chemical genetic growth profiling, strain panel (AID 1159580);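 note: tested at 20 µM; growth read once vehicle control cultures reached saturation at 30 °C; 1 = growth at the plate median or of vehicle wells; lower values mean less growth of the strain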
Conditions: S. cerevisiae deletion strains, growth OD, locus YNL298W, strain CLA4 (second series), active compounds read low
In all, about 5,500 compounds went through this assay and about 2,000 (36%) were called active. Another 18% or so got no clear call; they are omitted. Some of the results follow.
No unit in the answer, please; the number alone is enough.

Reported normalized growth, compound `Cn1c(SCC(=O)N2CCOCC2)nnc1-c1ccc2ncccc2c1` : ____ 1.03

What about this compound? `O=C1c2ccccc2C(=O)N1CN1CCC(O)(c2ccc(Cl)cc2)CC1` 0.974

What about this compound? `COc1ccc([N+](=O)[O-])c(OC)c1C(N)=O` 1.02

What about this compound? `NC(=NS(=O)(=O)c1cc(Cl)c(Oc2ccc([N+](=O)[O-])cc2Cl)c(Cl)c1)c1cccnc1` 1.02

What about this compound? `O=C1C(c2ccc(Br)cc2)=C(O)c2ccccc21` 0.994

What about this compound? `CC(C)(C)c1ccc(Oc2ncccc2NC(=O)c2ccccc2C(F)(F)F)cc1` 0.987

What about this compound? `CCCCCCCCCCCCSc1nnc(N)s1` 0.976

What about this compound? `Cc1ccc(Sc2ncccc2C(=O)NCC(=O)O)cc1` 1.02

What about this compound? `CC(=O)CS(=O)(=O)c1ccc(Cl)cc1` 0.992

What about this compound? `CC(C)(C)OC(=O)NCc1n[nH]c(=S)n1-c1ccccc1` 1.06

What about this compound? CCOC(=O)C1C(=O)C=C(c2cccs2)CC1c1ccc(OC)c(OC)c1Cl (stereo unspecified) 0.976

What about this compound? `O=C(Nc1ccc(OC(F)(F)F)cc1)Nc1cccc(C(=O)O)c1` 1

What about this compound? `COC(=O)c1cccnc1Sc1ccc(C)cc1` 0.917

What about this compound? `CC(=O)C1=C(C)Nc2ccccc2S1` 0.857

What about this compound? `CCOC(=O)c1cnc2n(c1=O)CCS2` 1.03

What about this compound? `CN(C)/C=C1\CSc2ccc(F)cc2C1=O` 0.415

What about this compound? `Cn1c2c(c3ccccc31)/C(=N\OC(=O)c1ccc(Cl)cc1Cl)CCC2` 1.01

What about this compound? CC1CC(=O)Nc2ccccc2N1C(=O)c1ccc([N+](=O)[O-])cc1 (stereo unspecified) 1.05

What about this compound? `Clc1ccc2ocnc2c1` 1.04

What about this compound? `CCn1nc(C)cc1C(=O)O` 1.04

What about this compound? O=C(O)C1CC(=O)N(Cc2ccccc2Cl)C1 (stereo unspecified) 1.07

* * *

Experiment: chemical genetic growth profiling, strain panel (AID 1159580);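 note: tested at 20 µM; growth read once vehicle control cultures reached saturation at 30 °C; 1 = growth at the plate median or of vehicle wells; lower values mean less growth of the strain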
Conditions: S. cerevisiae deletion strains, growth OD, locus YNL322C, strain KRE1 (second series), active compounds read low
Out of some 5,500 compounds screened, about 2,000 (36%) were called active. About 18% were inconclusive and are not listed. The list shows a part of the results.
measurement_label: normalized growth

Reported normalized growth, molecule `O=C(CCCN1CCN(c2ccccn2)CC1)c1ccc(F)cc1` : ____ 1.02 (inactive)

What about this molecule? CC1(C)S[C@@H]2[C@H](NC(=O)C(C(=O)O)c3ccccc3)C(=O)N2[C@H]1C(=O)O (stereo partly drawn) 0.971 (inactive)

What about this molecule? COC(=O)C[C@H]1C(C)(C)[C@@H](O)[C@@H]2CC3=C4CC(O)O[C@@H](c5ccoc5)[C@]4(C)CCC3[C@@]1(C)C2=O (stereo partly drawn) 1.04 (inactive)

What about this molecule? CC(=O)OC1CC[C@@]2(C)C(CCC3C2CC[C@]2(C)C(C4=CC(=O)OC4)C(OC(C)=O)CC32O)C1 (stereo partly drawn) 0.971 (inactive)

What about this molecule? COC1CC(OC2CCC3(C)C(CCC4C3CCC3(C)C(C5=CC(=O)OC5)C(OC(C)=O)CC43O)C2)OC(C)C1O (stereo not drawn) 1.03 (inactive)

What about this molecule? COC1C(O)C(O[C@H]2CC[C@]3(C=O)C4C(CC[C@]3(O)C2)[C@@]2(O)CC[C@H](C3=CC(=O)OC3)[C@@]2(C)C[C@H]4OC(C)=O)OC(C)C1OC(C)=O (stereo partly drawn) 1.02 (inactive)

What about this molecule? `CO[C@@H]1[C@@H](OC(N)=O)[C@@H](O)[C@H](Oc2ccc3c(O)c(NC(=O)c4ccc(O)c(CC=C(C)C)c4)c(=O)oc3c2C)OC1(C)C` 1.01 (inactive)

What about this molecule? `COc1c(O)cc2c(c1O)[C@H]1O[C@H](CO)[C@@H](O)[C@H](O)[C@@H]1OC2=O` 1.02 (inactive)

What about this molecule? `COc1cc(-c2cc(=O)c3c(O)c(OC)c(OC)c(OC)c3o2)cc(OC)c1OC` 1.02 (inactive)

What about this molecule? `CC[C@@]1(O)C(=O)OCc2c1cc1n(c2=O)Cc2cc3cc(O)ccc3nc2-1` 1.06 (inactive)

What about this molecule? C[C@H]1O[C@H](O[C@H]2[C@H](O)[C@@H](O)[C@@H](O[C@H]3[C@H](O)[C@@H](O)C(O)O[C@@H]3CO)O[C@@H]2CO)[C@H](O)[C@@H](O)[C@@H]1N[C@H]1C=C(CO)[C@@H](O)[C@H](O)[C@H]1O (stereo partly drawn) 0.988 (inactive)

What about this molecule? `Oc1ccc([C@H]2Oc3cc(O)cc(O)c3C[C@H]2O)cc1` 0.995 (inactive)

What about this molecule? CC1(C)C(=O)CC[C@@]2(C)C1C[C@@H](O)[C@@]1(C)C3=CC(=O)O[C@@H](c4ccoc4)[C@]3(C)CCC21 (stereo partly drawn) 1.03 (inactive)

What about this molecule? `COc1ccc(-c2cc(=O)c3c(OC)c(OC)c(OC)c(OC)c3o2)cc1OC` 0.994 (inactive)

What about this molecule? `OC1(c2ccc(Cl)c(C(F)(F)F)c2)CCN(CCCC(c2ccc(F)cc2)c2ccc(F)cc2)CC1` 0.479 (active)

What about this molecule? `O=c1c(O)cc([C@H]2Oc3cc(O)cc(O)c3C[C@H]2O)cc2c([C@H]3Oc4cc(O)cc(O)c4C[C@H]3O)cc(O)c(O)c12` 1.07 (inactive)

What about this molecule? CC(C)=CC1C(CO)C1(C)C (stereo not drawn) 1.02 (inactive)

What about this molecule? C[C@@H]1CC[C@@]23CCC4(C)[C@@](C=CC5[C@@]6(C)CCC(=O)C(C)(C)C6CC[C@]54C)(OC2=O)C3[C@H]1C (stereo partly drawn) 1 (inactive)

What about this molecule? C[C@@H]1O[C@@H](O[C@H]2CC[C@]3(C=O)C4CC[C@]5(C)[C@@H](C6=CC(=O)OC6)CC[C@]5(O)C4CC[C@]3(O)C2)[C@H](O)[C@H](O)[C@H]1O (stereo partly drawn) 1.01 (inactive)

What about this molecule? `O=C(CCCN1CCC(O)(c2ccc(Cl)cc2)CC1)c1ccc(F)cc1` 1.11 [resistant] (active)

What about this molecule? C[C@@H]1CC[C@@]23CCC4(C)[C@@](C=CC5[C@@]6(C)CC[C@H](O)C(C)(C)C6CC[C@]54C)(OC2=O)C3[C@H]1C (stereo partly drawn) 0.998 (inactive)

What about this molecule? `COc1ccc(-c2cc(=O)c3c(O)cc(O)cc3o2)cc1` 0.984 (inactive)

What about this molecule? `O=C1CC2(CCCC2)CC(=O)N1CCCCN1CCN(c2ncccn2)CC1` 0.99 (inactive)
